For reference, Ki measured on JAK2 (Homo sapiens, UniProt O60674):

Illustrative cases are given below, each with its answer.
O=C(NCC(F)(F)F)C1(Nc2ccnc(-c3c[nH]c4ncncc34)n2)CCC1
< 500 nM
O=C(NCC(F)(F)F)[C@H]1C[C@H](O)CN1c1nc(-c2c[nH]c3ncncc23)ncc1F
500 to 5000 nM
CN(c1ccnc(-c2c[nH]c3ncncc23)n1)C(C(=O)NCC(F)(F)F)c1ccccc1 (stereo not drawn)
500 to 5000 nM
C[C@H](c1ccccc1)N(C)c1ccnc(-c2c[nH]c3ncncc23)n1
< 500 nM
C[C@@H](Nc1ncnc(-c2c[nH]c3ncncc23)n1)C(=O)NCC(F)(F)F
500 to 5000 nM

// below: Ki requested for another molecule
**Q:** Param item = `COC[C@H](Nc1nc(-c2c[nH]c3ncncc23)nc2ccccc12)C(=O)NCC(F)(F)F` ; retrieve measured Ki.
**A:** > 5000 nM

The measured values listed here are drawn from patent US8580802B2.
